Tested on: colorectal cancer cell lines (e.g. DLD-1, HCT 116, SW620, HCT-15, HCT-8, RKO)
procedure_details: Cell based assay, cell viability (CellTiter-Glo), colorectal cancer cell lines
measurement_context: Homo sapiens, SW480, 72 hours treatment, read-out: IC50, colorectal cancer cell line SW480
Catalogue of IC50 readings, one per entry.

{"compound": "CC(=O)c1c(SCc2cccc(F)c2)[nH]c2c(Br)ccc(Cl)c2c1=O", "tested_on": "colorectal cancer cell lines (e.g. DLD-1, HCT 116, SW620, HCT-15, HCT-8, RKO)", "IC50": "> 2 µM"}
{"compound": "CC(=O)c1c([S+]([O-])Cc2cccc(S(F)(F)(F)(F)F)c2)[nH]c2c(Br)ccc(Cl)c2c1=O (stereo not shown)", "tested_on": "colorectal cancer cell lines (e.g. DLD-1, HCT 116, SW620, HCT-15, HCT-8, RKO)", "IC50": "1.8 µM"}
{"compound": "CC(=O)c1c(S(=O)(=O)Cc2ccccc2)[nH]c2c(Br)ccc(Cl)c2c1=O", "tested_on": "colorectal cancer cell lines (e.g. DLD-1, HCT 116, SW620, HCT-15, HCT-8, RKO)", "IC50": "> 2 µM"}

Lab note: next compound to report on.
Find IC50 (colorectal cancer cell lines (e.g. DLD-1, HCT 116, SW620, HCT-15, HCT-8, RKO)) for the entry CSc1c(C(C)=O)c(=O)c2c(Cl)ccc(Br)c2n1C
> 2 µM

---

Tested on: blood cancer cell lines (e.g. HL-60, Jurkat, Raji, Ramos, Daudi, MOLT-4)
procedure_details: Cell based assay, cell viability (CellTiter-Glo), blood cancer cell lines
measurement_context: Homo sapiens, blood cancer cell line HL-60, 72 hours, read-out: IC50, HL-60
Text: Commercially available bladder cancer, prostate cancer, lung cancer, breast cancer, blood cancer, pancreatic cancer, colorectal cancer, brain cancer, neuroblastoma, melanoma, liver cancer, cervical carcinoma, ovarian cancer, renal cancer, and papilloma cell lines were each treated with trypsin-EDTA and cultured, followed by being seeded in each well of a 96 well plate. […]
pIC50: −log10 of the molar value.
Recorded pIC50, one value per entry.

Some solved cases for reference:
{"compound": "CC(=O)c1c([S+]([O-])Cc2ccc(S(F)(F)(F)(F)F)cc2F)[nH]c2c(Br)ccc(Cl)c2c1=O (centres unmarked) [Compound 69]", "assay_metric": "pIC50", "meas_value": 5.73}
{"compound": "CC(=O)c1c(Sc2ccc(Br)cc2)[nH]c2c(Br)ccc(Cl)c2c1=O [Compound 16]", "assay_metric": "pIC50", "meas_value": "< 5.70"}
{"compound": "CC(=O)c1c([S+]([O-])Cc2ccc(C(C)(C)C)cc2)[nH]c2c(Br)ccc(Cl)c2c1=O (centres unmarked) [Compound 60]", "assay_metric": "pIC50", "meas_value": "< 5.70"}
{"compound": "CSc1c(C(C)=O)c(=O)c2c(Cl)ccc(Br)c2n1S(=O)(=O)c1ccc(Cl)cc1 [Compound 37]", "assay_metric": "pIC50", "meas_value": "< 5.70"}

I have this compound here, CC(=O)c1c([S+]([O-])CN2C(=O)c3ccccc3C2=O)[nH]c2c(Cl)ccc(Cl)c2c1=O (centres unmarked) [Compound 90] , and I need its recorded pIC50.
< 5.70

---

Parameter pIC50: see the listing below.
Tested on: blood cancer cell lines (e.g. HL-60, Jurkat, Raji, Ramos, Daudi, MOLT-4)
procedure_details: Cell based assay, cell viability (CellTiter-Glo), blood cancer cell lines
measurement_context: Homo sapiens, blood cancer cell line Raji, 72 hours, read-out: IC50, Raji
Friendly reminder that pIC50 comes from taking -log10 of the concentration in mol/L.

{"compound": "CC(=O)c1c([S+]([O-])Cc2ccc(OC(F)(F)F)cc2)[nH]c2c(Br)ccc(Cl)c2c1=O (stereo not shown) [Compound 71]", "pIC50": 5.78}
{"compound": "CC(=O)c1c([S+]([O-])Cc2cc(F)cc(S(F)(F)(F)(F)F)c2)[nH]c2c(Br)ccc(Cl)c2c1=O (stereo not shown) [Compound 76]", "pIC50": 5.87}
{"compound": "CC(=O)c1c([S+]([O-])Cc2cc(Cl)ccc2Cl)[nH]c2c(Br)ccc(Cl)c2c1=O (stereo not shown) [Compound 44]", "pIC50": 5.94}

Then this compound:
Requested read-out pIC50, target or system blood cancer cell lines (e.g. HL-60, Jurkat, Raji, Ramos, Daudi, MOLT-4), entry Cc1cc(C[S+]([O-])c2[nH]c3c(Br)ccc(Cl)c3c(=O)c2C(=O)C2CC2)no1 (stereo not shown) [Compound 96]
5.78

---

Test system: lung cancer cell lines (e.g. NCI-H23, NCI-H1229)
procedure_details: Cell based assay, cell viability (CellTiter-Glo), lung cancer cell lines
measurement_context: Homo sapiens; NCI-H23 cells; 72 hours treatment; CellTiter-Glo; read-out: IC50, lung cancer cell line NCI-H23
assay_metric: IC50 (µM)
Please reply with the bare figure in µM and do not write the unit itself.

Record excerpt, results attached:
{"molecule": "CC(=O)c1c([S+]([O-])Cc2cccc(F)c2)[nH]c2c(Br)ccc(Cl)c2c1=O (stereo not shown)", "IC50 (µM)": 1.14}
{"molecule": "Cc1cc(C[S+]([O-])c2[nH]c3c(Br)ccc(Cl)c3c(=O)c2C(=O)C2CC2)no1 (stereo not shown)", "IC50 (µM)": 1.34}

Quick check: IC50 of Cc1cc(C[S+]([O-])c2[nH]c3c(Cl)ccc(Cl)c3c(=O)c2C(=O)C2CC2)no1 (stereo not shown) ?
1.09

---

Tested on: colorectal cancer cell lines (e.g. DLD-1, HCT 116, SW620, HCT-15, HCT-8, RKO)
procedure_details: Cell based assay, cell viability (CellTiter-Glo), colorectal cancer cell lines
measurement_context: Homo sapiens, DLD-1, 72 hours treatment, read-out: IC50, colorectal cancer cell line DLD-1
assay_metric: IC50

Here is how some compounds turned out for IC50.
{"compound": "CC(=O)c1c([S+]([O-])CC#N)[nH]c2c(Br)ccc(Cl)c2c1=O (stereo not drawn)", "tested_on": "colorectal cancer cell lines (e.g. DLD-1, HCT 116, SW620, HCT-15, HCT-8, RKO)", "IC50": "> 2 µM"}
{"compound": "CSc1c(C(C)=O)c(=O)c2c(Cl)ccc(Br)c2n1S(=O)(=O)c1ccc(C(C)(C)C)cc1", "tested_on": "colorectal cancer cell lines (e.g. DLD-1, HCT 116, SW620, HCT-15, HCT-8, RKO)", "IC50": "> 2 µM"}
{"compound": "CSc1c(C(C)=O)c(=O)c2c(Cl)ccc(Br)c2n1S(=O)(=O)c1ccc([N+](=O)[O-])cc1", "tested_on": "colorectal cancer cell lines (e.g. DLD-1, HCT 116, SW620, HCT-15, HCT-8, RKO)", "IC50": "> 2 µM"}
{"compound": "CC(=O)c1c(Sc2ccccc2)[nH]c2c(Br)ccc(Cl)c2c1=O", "tested_on": "colorectal cancer cell lines (e.g. DLD-1, HCT 116, SW620, HCT-15, HCT-8, RKO)", "IC50": "> 2 µM"}
{"compound": "CC(=O)c1c([S+]([O-])Cc2ccc(C(F)(F)F)o2)[nH]c2c(F)ccc(F)c2c1=O (stereo not drawn)", "tested_on": "colorectal cancer cell lines (e.g. DLD-1, HCT 116, SW620, HCT-15, HCT-8, RKO)", "IC50": "> 2 µM"}

Next, consider the following compound.
What does the record list as IC50 for CC(=O)c1c([S+](C)[O-])[nH]c2c(Cl)ccc(Cl)c2c1=O (stereo not drawn) ?
0.7 µM

---

System: blood cancer cell lines (e.g. HL-60, Jurkat, Raji, Ramos, Daudi, MOLT-4)
procedure_details: Cell based assay, cell viability (CellTiter-Glo), blood cancer cell lines
measurement_context: Homo sapiens, blood cancer cell line Ramos (RA 1), 72 hours, read-out: IC50, Ramos (RA 1)
pIC50: −log10 of the molar value.
Reported pIC50 by item:

Name the reported pIC50 value associated with the molecule CC(=O)c1c([S+]([O-])CC#N)[nH]c2c(Br)ccc(Cl)c2c1=O (centres unmarked)
< 5.70

Given CC(=O)c1c([S+]([O-])Cc2cc(C)on2)[nH]c2c(F)ccc(F)c2c1=O (centres unmarked) , state its recorded pIC50.
< 5.70

Form field: reported pIC50 of COC(=O)c1ccc(C[S+]([O-])c2[nH]c3c(Cl)ccc(Cl)c3c(=O)c2C(C)=O)cc1 (centres unmarked)
< 5.70

Dear colleague, I am looking for the recorded pIC50 of the following molecule: CC(=O)c1c([S+](C)[O-])n(C(=O)c2ccc(Br)cc2)c2c(Br)ccc(Cl)c2c1=O (centres unmarked)
5.81

Item CC(=O)c1c([S+]([O-])Cc2cnc3[nH]ccc3c2)[nH]c2c(Br)ccc(Cl)c2c1=O (centres unmarked) has what recorded pIC50?
< 5.70

Endpoint output: pIC50 of CC(=O)c1c([S+]([O-])Cc2ccc(-n3cccn3)nc2)[nH]c2c(Br)ccc(Cl)c2c1=O (centres unmarked) . Value?
6.08

Given the molecule CC(=O)c1c([S+]([O-])Cc2nonc2C)[nH]c2c(Br)ccc(Cl)c2c1=O (centres unmarked) , what is its reported pIC50?
< 5.70

Looking for the measured pIC50 of CC(=O)c1c([S+]([O-])Cc2ccc([S+]([O-])C(F)(F)F)cc2)[nH]c2c(Br)ccc(Cl)c2c1=O (centres unmarked) , can you help?
5.73
